Attribution: patent US11485737B2

TARGET DESC: C5aR (Homo sapiens)
Construct: U937 cells are a monocytic cell line which express C5aR
Sequence (P21730 whole entry): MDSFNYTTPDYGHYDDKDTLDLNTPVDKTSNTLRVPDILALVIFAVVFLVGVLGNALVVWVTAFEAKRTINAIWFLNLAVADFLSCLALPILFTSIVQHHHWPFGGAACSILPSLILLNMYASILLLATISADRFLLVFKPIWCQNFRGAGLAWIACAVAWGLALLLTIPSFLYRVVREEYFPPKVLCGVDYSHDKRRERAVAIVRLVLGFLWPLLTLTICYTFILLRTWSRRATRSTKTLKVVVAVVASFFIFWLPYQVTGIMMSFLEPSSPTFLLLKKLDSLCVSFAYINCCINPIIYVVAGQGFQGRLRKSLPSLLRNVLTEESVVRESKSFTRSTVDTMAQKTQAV
PROCEDURE TEXT: Chemotaxis assay using U937 cells (C5a-induced migration)
PARTICULARS: chemotaxis (migration) of U937 cells towards C5a; read-out: Mig IC50
READOUT LABEL: IC50

Briefly, IC50 measured for COc1cccc(C)c1-n1nc2c(c1-c1ccc(N)cc1)CN(c1cc(C(C)(C)C)ccc1C)C2 : 5 to 50 nM

Briefly, IC50 measured for Cc1cccc(C)c1-n1nc2c(c1-c1ccc(C(N)=O)cc1)CN(C(=O)OC(C)(C)C)C2 : > 500 nM

Briefly, IC50 measured for Cc1cccc(C)c1-n1nc2c(c1-c1cc(F)c(NC(N)=O)cc1F)CN(Cc1ccc(C(F)(F)F)cc1C(F)(F)F)C2(C)C : < 5 nM

Briefly, IC50 measured for CCOc1cccc(C)c1-n1nc2c(c1-c1ccc(N)cc1)CN(c1cc(C(C)(C)C)ccc1C)C2 : 5 to 50 nM

Briefly, IC50 measured for Cc1cccc(C)c1-n1nc2c(c1-c1ccc(N)cc1)CN(c1ccccc1C(C)C)C2 : 50 to 500 nM

Briefly, IC50 measured for Cc1ccc(C(C)(C)C)cc1N1Cc2nn(-c3c(C)cccc3C)c(-c3ccc(C(N)=O)cc3)c2C1=O : 5 to 50 nM

Briefly, IC50 measured for CCc1cccc(CC)c1-n1nc2c(c1-c1cc(F)c(NC(N)=O)cc1F)CN(Cc1ccc(C(F)(F)F)cc1C(F)(F)F)C2(C)C : < 5 nM

Briefly, IC50 measured for COc1cccc(C)c1-n1nc2c(c1-c1ccc(NC(N)=O)cc1)CN(c1ccccc1C(C)C)C2 : 50 to 500 nM

Briefly, IC50 measured for Cc1cccc(C)c1-n1nc2c(c1-c1ccc(C(N)=O)cc1)CN(c1cccc(C(C)(C)C)n1)C2 : > 500 nM

Briefly, IC50 measured for Cc1cccc(C)c1-n1nc2c(c1-c1ccc(NC(N)=O)cc1)CN(CC(C)(C)C)C2(C)C : 50 to 500 nM

Briefly, IC50 measured for CCc1cccc(CC)c1-n1nc2c(c1-c1cc(F)c(NC(N)=O)cc1F)CN(C(=O)C(C)CC)C2(C)C (stereo not shown) : < 5 nM

Briefly, IC50 measured for CCc1cccc(CC)c1-n1nc2c(c1-c1cc(C)c(NC(N)=O)cc1F)CN(Cc1ccc(C(F)(F)F)cc1C(F)(F)F)C2(C)C : < 5 nM

Briefly, IC50 measured for Cc1cccc(C)c1-n1nc2c(c1-c1ccc(NC(N)=O)cc1)CN(CC(C)(C)C)C2 : 50 to 500 nM

Briefly, IC50 measured for CCc1cccc(CC)c1-n1nc2c(c1-c1cc(F)c(NC(N)=O)cc1F)CN(CC(C)(C)C(F)(F)F)C2(C)C : < 5 nM

Briefly, IC50 measured for CCc1cccc(CC)c1-n1nc2c(c1-c1cc(F)c(NC(N)=O)cc1F)CN(C(=O)CC(C)C)C2(C)C : < 5 nM

Briefly, IC50 measured for CCc1cccc(CC)c1-n1nc2c(c1-c1cc(F)c(NC(N)=O)cc1C)CN(Cc1ccccc1C(F)(F)F)C2(C)C : < 5 nM

Briefly, IC50 measured for CCc1cccc(CC)c1-n1nc2c(c1-c1cc(F)c(NC(N)=O)cc1F)CN(Cc1ccccc1C(F)(F)F)C2(C)C : < 5 nM

Briefly, IC50 measured for Cc1cc(C(N)=O)ccc1-c1c2c(nn1-c1c(C)cccc1C)C(=O)N(c1cc(C(C)(C)C)ccc1C)C2 : 50 to 500 nM

Briefly, IC50 measured for COc1cccc(C)c1-n1nc2c(c1-c1ccc(NC(N)=O)cc1)CN(C(=O)NC(C)(C)C)C2 : > 500 nM

Briefly, IC50 measured for Cc1cccc(C)c1-n1nc2c(c1-c1ccc(C(N)=O)cc1)CN(C(=O)c1ccc(C(C)(C)C)cc1)C2 : > 500 nM

Briefly, IC50 measured for Cc1ccc(C(C)(C)C)cc1N1Cc2nn(-c3c(C)cccc3C)c(-c3ccc(C(C)(C)O)cc3)c2C1 : 50 to 500 nM

Briefly, IC50 measured for Cc1ccc(C(C)(C)C)cc1N1Cc2nn(-c3c(C)cccc3C)c(-c3ccc(C(=O)O)cc3)c2C1 : > 500 nM

Briefly, IC50 measured for CCc1cccc(CC)c1-n1nc2c(c1-c1cc(F)c(NC(N)=O)cc1F)CN(Cc1cc(Cl)ccc1Cl)C2(C)C : < 5 nM

Briefly, IC50 measured for Cc1ccc(C(C)(C)C)cc1N1Cc2nn(-c3c(C)cccc3C)c(-c3ccc(C(N)=O)cc3)c2C1 : < 5 nM

Briefly, IC50 measured for Cc1ccc(C(C)(C)C)cc1N1Cc2c(nn(-c3c(C)cccc3C)c2-c2ccc(C(N)=O)cc2)C1=O : 5 to 50 nM

Briefly, IC50 measured for CCc1cccc(CC)c1-n1nc2c(c1-c1cc(F)c(NC(N)=O)cc1C)CN(CC1(C)COC1)C2(C)C : 5 to 50 nM

Briefly, IC50 measured for CNc1ccc(-c2c3c(nn2-c2c(C)cccc2C)CN(c2cc(C(C)(C)C)ccc2C)C3)cc1 : > 500 nM

Briefly, IC50 measured for CCc1cccc(CC)c1-n1nc2c(c1-c1cc(F)c(NC(N)=O)cc1F)CN(CC1CCOCC1)C2(C)C : < 5 nM
